These data points were gathered from patent US20250066380A1.

System: blood-stage Plasmodium falciparum (3D7 strain)
Test: Antimalarial activity, SYBR green staining-based parasitemia determination
Format: cell-based
Details: Plasmodium falciparum; P. falciparum 3D7; read-out: antimalarial activity (bound)
experimental-endpoint: EC50

Fill in: EC50 of CC1OC2OC3C4=C(OC3(C)C12O)C(=O)c1c(O)cccc1C4=O (stereo not shown) is ___
< 1000 nM
